- Tested on: DeltatarO mutant
- measurement notes: S. aureus survival, RN4220 and DeltatarO strains – OD600, teichoic acid synthesis inhibitors, primary screen (AID 463173)
- test context: S. aureus RN4220 wild type/DeltatarO growth, OD600, 18 h, active compounds read low, screened at 18.75 µg/mL (by protocol)
About 4,300 (8.3%) of roughly 52,000 compounds were called active. Many of the other results were omitted from the sample, so actives are more common in it than they were.
# binning rule on survival: interval 1 = under 70%, interval 2 = from 70% up to 90%, interval 3 = 90% and over

[ask] Which class holds CCN(c1ccccc1)S(=O)(=O)c1nnc(NC(=O)COc2ccc(OC)cc2)s1 ?
[reply] interval 1

[ask] Which class holds CCC(C(=O)NCc1ccco1)n1nc(C)c2c(C)n(-c3ccc(C)cc3)nc2c1=O (stereo not given) ?
[reply] interval 2

[ask] Which class holds CCC(C(=O)NCCc1ccc(SC)cc1)n1nc(C)c2c(C)n(-c3ccc(C)cc3)nc2c1=O (stereo not given) ?
[reply] interval 2

[ask] Which class holds Cc1ccc(-n2nc3c(=O)n(C(C)C(=O)NCc4ccco4)nc(C)c3c2C)cc1 (stereo not given) ?
[reply] interval 1

[ask] Which class holds COc1ccc(C2=NN(CC(=O)NCCCN(C)c3ccccc3)C(=O)CC2)cc1 ?
[reply] interval 3

[ask] Which class holds CCCNC(=O)C(C)n1nc(C)c2c(C)n(-c3ccccc3)nc2c1=O (stereo not given) ?
[reply] interval 3

[ask] Which class holds CCOc1ccc(-c2nnc(SCC(=O)NCc3ccc(C)cc3)nc2-c2ccc(OCC)cc2)cc1 ?
[reply] interval 3

[ask] Which class holds CCOC(=O)c1cccc(NC(=O)CCC(=O)N2CC(C)Oc3ccc(C)cc32)c1 (stereo not given) ?
[reply] interval 1

[ask] Which class holds COc1cccc(C2c3c(-c4ccccc4O)n[nH]c3C(=O)N2CCc2ccc(OC)c(OC)c2)c1 (stereo not given) ?
[reply] interval 1

[ask] Which class holds CCN(CC)S(=O)(=O)c1nnc(NC(=O)COc2ccccc2F)s1 ?
[reply] interval 3

[ask] Which class holds Cc1ccccc1Cn1c(=O)n(CCC(=O)NCc2ccco2)c(=O)c2sccc21 ?
[reply] interval 3

[ask] Which class holds CCN(c1ccccc1)S(=O)(=O)c1nnc(NC(=O)COc2ccccc2F)s1 ?
[reply] interval 1

[ask] Which class holds COC(=O)c1ccc(Oc2nc3c(c(=O)n(C)c(=O)n3C)n2C(C)C)cc1 ?
[reply] interval 2

[ask] Which class holds COc1ccc(CCN2C(=O)c3[nH]nc(-c4ccccc4O)c3C2c2ccc(OC)c(OC)c2)cc1 (stereo not given) ?
[reply] interval 1

[ask] Which class holds Cc1ccc(N2CC(NC(=O)C3CCCC3)CC2=O)cc1C (stereo not given) ?
[reply] interval 3

[ask] Which class holds CCc1cccc(NC(=O)c2c(N3CCCC3=O)c3cc(C)ccc3n2C)c1 ?
[reply] interval 2

[ask] Which class holds Cc1ccc(-c2noc(-c3nnn(CC(=O)Nc4ccc(C)cc4Cl)c3N)n2)cc1 ?
[reply] interval 2

* * *

- System: DeltatarO mutant
- measurement notes: S. aureus survival, RN4220 and DeltatarO strains – OD600, teichoic acid synthesis inhibitors, primary screen (AID 463173)
- test context: S. aureus RN4220 wild type/DeltatarO growth, OD600, 18 h, active compounds read low, screened at 18.75 µg/mL (by protocol)
Out of some 52,000 compounds screened, about 4,300 (8.3%) were called active. What follows is part of a selection rich in actives, with near analogues and random picks from the rest.
Note to self: use class 1 only for survival readings below 90%; a reading exactly at 90% still gets class 0.

[ask] Is survival of COc1ccc(CCNC(=O)CCn2c(=O)c3ccccc3n(Cc3ccccc3C)c2=O)cc1OC strictly below 90%?
[reply] class 1

[ask] Is survival of COc1cc(OC)c(NC(=O)c2noc3c2CSc2ccccc2-3)cc1Cl strictly below 90%?
[reply] class 1

[ask] Is survival of COc1ccc(-c2nc3ccccc3o2)cc1N strictly below 90%?
[reply] class 1

[ask] Is survival of O=C(CSc1nc(-c2ccc(F)cc2)[nH]c1-c1ccccc1)NCC1CCCO1 (centres undefined) strictly below 90%?
[reply] class 1

[ask] Is survival of Cc1cc(C)nc(NC(N)=NC2CCCCC2)n1 strictly below 90%?
[reply] class 1

[ask] Is survival of COc1cccc(CN(C(=O)c2cccc(C)c2)C2CCS(=O)(=O)C2)c1 (centres undefined) strictly below 90%?
[reply] class 1

[ask] Is survival of Cc1ccc(COc2ccc(-c3cc(C(F)(F)F)n4nc(C)cc4n3)cc2)cc1 strictly below 90%?
[reply] class 0

[ask] Is survival of Cc1ccc([N+](=O)[O-])c(Oc2ncnc3c2oc2ccccc23)c1 strictly below 90%?
[reply] class 0

[ask] Is survival of COc1cccc(C(=O)NC(=NCCc2c[nH]c3ccc(OC)cc23)Nc2nc(C)cc(C)n2)c1 strictly below 90%?
[reply] class 1

[ask] Is survival of Cn1cnc(S(=O)(=O)N2CCC(C(=O)Nc3ccc(C#N)cc3)CC2)c1 strictly below 90%?
[reply] class 0

[ask] Is survival of CCOC(=O)c1c(C)[nH]c(C)c1S(=O)(=O)NCC(=O)Nc1ccc(CC)cc1 strictly below 90%?
[reply] class 0

[ask] Is survival of COc1ccc(CNC(=O)c2ccc(NC(=O)N3CCSc4ncccc43)cc2)cc1 strictly below 90%?
[reply] class 1

[ask] Is survival of Cc1cc(C)nc(NCC(C)c2ccccc2)n1 (centres undefined) strictly below 90%?
[reply] class 1

[ask] Is survival of Cc1ccc(C)c(OCCSc2nc3ccccc3n2CC(=O)N2CCOCC2)c1 strictly below 90%?
[reply] class 1

[ask] Is survival of O=C(Nc1ccccn1)C(=NO)C(=O)Nc1ccccn1 strictly below 90%?
[reply] class 0

[ask] Is survival of CCOC(=O)N1CCc2c(sc3c2c(=O)n(-c2ccc(Cl)cc2)c(=O)n3CC(C)C)C1 strictly below 90%?
[reply] class 0

[ask] Is survival of Cc1cc(C)nc(NC(=O)C(c2ccccc2)c2ccccc2)n1 strictly below 90%?
[reply] class 0

[ask] Is survival of CCn1c(SCC(N)=O)nc2ccccc21 strictly below 90%?
[reply] class 1

[ask] Is survival of CCN(CC)S(=O)(=O)c1ccc2c(c1)N(CC(=O)N1CCN(c3ccc(F)cc3)CC1)C(=O)CO2 strictly below 90%?
[reply] class 0

[ask] Is survival of O=C(Cn1ncc2c(=O)oc3ccccc3c21)NCc1ccc(Cl)cc1 strictly below 90%?
[reply] class 1

[ask] Is survival of C/C(=C\C(=O)c1cccnc1)Nc1ccccc1O strictly below 90%?
[reply] class 0

[ask] Is survival of COc1ccc(-c2nc3ccccc3o2)cc1NC(=O)c1ccc(N2CCC(C)CC2)c([N+](=O)[O-])c1 strictly below 90%?
[reply] class 1

[ask] Is survival of O=C(CSC1=NC(=O)C(c2ccccc2)C(=O)N1)Nc1nncs1 (centres undefined) strictly below 90%?
[reply] class 1

[ask] Is survival of N#Cc1ccccc1NC(=O)C(=O)NCCc1csc(-c2ccc(C(F)(F)F)cc2)n1 strictly below 90%?
[reply] class 1

[ask] Is survival of COc1ccc(CCNC(=O)CCn2c(=O)c3ccccc3n(Cc3ccccc3F)c2=O)cc1OC strictly below 90%?
[reply] class 0

[ask] Is survival of Cc1ccc(NC(=O)CN(C)S(=O)(=O)c2ccc3c(c2)CCC(=O)N3)c(C)c1 strictly below 90%?
[reply] class 1

[ask] Is survival of O=C(Cn1c(SCCOc2ccccc2Cl)nc2ccccc21)N1CCOCC1 strictly below 90%?
[reply] class 1

[ask] Is survival of O=C(OCc1ccccc1)c1ccc(-c2nnn(Cc3ccccc3F)n2)cc1 strictly below 90%?
[reply] class 0

[ask] Is survival of COc1ccc(CCN=C(N)Nc2nc(C)cc(C)n2)cc1 strictly below 90%?
[reply] class 1

[ask] Is survival of Cc1cccc(OCCSc2nc3ccccc3n2CC(=O)N2CCCCC2)c1C strictly below 90%?
[reply] class 1

[ask] Is survival of C=CCN(C(=O)c1ccc2c(c1)nnn2C)c1ccccc1 strictly below 90%?
[reply] class 0

[ask] Is survival of Cc1c(C)n(Cc2ccccc2)c2ccc(C(=O)N3CCN(c4ccccc4)CC3)cc12 strictly below 90%?
[reply] class 0

[ask] Is survival of COc1ccc(CCNC(=O)CCCCn2c(=O)c3ccccc3n(Cc3ccccc3C)c2=O)cc1OC strictly below 90%?
[reply] class 0

[ask] Is survival of COc1ccc(CCNC(=O)CCn2c(=O)c3ccccc3n(Cc3ccc(Cl)cc3)c2=O)cc1OC strictly below 90%?
[reply] class 0

[ask] Is survival of COc1ccc(S(=O)(=O)n2nc(C)c(S(=O)(=O)N3CCCCCC3)c2C)cc1OC strictly below 90%?
[reply] class 1

[ask] Is survival of O=C(Cn1c(SCCOc2ccccc2Cl)nc2ccccc21)N1CCCCC1 strictly below 90%?
[reply] class 1

[ask] Is survival of O=C(CSc1nc2ccccc2n1CC(=O)N1CCCC1)N1CCCCC1 strictly below 90%?
[reply] class 1

[ask] Is survival of Cc1cc(C(F)(F)F)n2nc(C)cc2n1 strictly below 90%?
[reply] class 1

[ask] Is survival of O=C(/C=C/c1ccco1)NC(=S)NC1CCCCC1 strictly below 90%?
[reply] class 0

[ask] Is survival of O=C(Oc1c(Cl)cc(Cl)c2cccnc12)N1CCCCCC1 strictly below 90%?
[reply] class 0

[ask] Is survival of Cc1cc(C)nc(NC(N)=NC(C)c2ccccc2)n1 (centres undefined) strictly below 90%?
[reply] class 1

[ask] Is survival of NC(=O)COc1cccc(-n2cnnn2)c1 strictly below 90%?
[reply] class 1
